As shown below, each of these compounds has a reported IC50 value.
# assay system: CDK4/CyclinD1 (Homo sapiens (Human))
# Sequence (P11802 whole entry, species assumed): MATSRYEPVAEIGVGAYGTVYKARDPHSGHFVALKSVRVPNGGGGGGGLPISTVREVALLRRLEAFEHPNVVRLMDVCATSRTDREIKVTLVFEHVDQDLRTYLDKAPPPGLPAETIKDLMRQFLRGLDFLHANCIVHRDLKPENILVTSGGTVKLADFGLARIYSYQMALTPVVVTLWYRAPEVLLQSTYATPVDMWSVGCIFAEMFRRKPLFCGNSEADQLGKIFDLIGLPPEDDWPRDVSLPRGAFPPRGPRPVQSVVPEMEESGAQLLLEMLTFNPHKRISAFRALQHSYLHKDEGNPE
# Sequence (P24385 whole entry partner, species assumed): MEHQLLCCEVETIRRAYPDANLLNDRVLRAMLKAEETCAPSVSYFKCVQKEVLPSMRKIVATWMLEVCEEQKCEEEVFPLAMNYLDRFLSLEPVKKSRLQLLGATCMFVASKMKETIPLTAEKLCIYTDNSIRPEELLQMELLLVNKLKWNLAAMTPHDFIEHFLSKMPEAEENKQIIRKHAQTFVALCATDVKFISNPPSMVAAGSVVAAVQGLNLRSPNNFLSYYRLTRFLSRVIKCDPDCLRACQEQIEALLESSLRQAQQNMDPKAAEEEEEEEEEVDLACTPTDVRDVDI
# procedure text: CDK4/CyclinD1 kinase assay (Nanosyn, Caliper microfluidic)
# Format: biochemical
# measurement parameters: Table 2; read-out: CDK4/CycD1 IC50
# Method: Selected compounds disclosed herein were tested in CDK4/cyclinD1, CDK6/CycD3 CDK2/CycA and CDK2/cyclinE kinase assays by Nanosyn (Santa Clara, Calif.) to determine their inhibitory effect on these CDKs. The assays were performed using microfluidic kinase detection technology (Caliper Assay Platform). The compounds were tested in 12-point dose-response format in singlicate at Km for ATP. […]

1) C[C@@H]1CN(c2ccc(Nc3ncc4cc5n(c4n3)C3(CCCCC3)CNC5=O)nc2)CCN1 | 2.9 nM
2) CC(C)N1CCN(c2ccc(Nc3ncc4cc5n(c4n3)C3(CCCCC3)CNC5=O)nc2)CC1C (stereo not shown) | 3.1 nM
3) CCN(CC)C1CCN(c2ccc(Nc3ncc4cc5n(c4n3)C3(CCCC3)CNC5=O)nc2)CC1 | 3.2 nM

Turning now to a further record.
query: Requested read-out IC50, target or system CDK4/CyclinD1 (Homo sapiens (Human)), entry C[C@@H]1CN(c2ccc(Nc3ncc4cc5n(c4n3)C3(CCCCC3)CNC5=O)nc2)CCN1C
result: 3.7 nM
